Reference source for all entries: ChEMBL document CHEMBL3988442

Molecular target: ClpP1P2 (Mycobacterium tuberculosis (strain ATCC 25618 / H37Rv)) (UniProt P9WPC5+P9WPC3)
Test: in vitro assay to detect presence of AMC directly proportional to the activity of ClpP1P2. GHDDI collaboration.
Type: functional
Set-up: scale not given: direction of the effect not stated beside the values
Details: 50 µM
The whole screen tested about 69,000 compounds, of which about 10 (0.01%) showed an effect of 50% or more. Only a selection was taken, and strong results are over-represented in it overall.
Measured Percent Effect values are reported for all entries that follow.
METRIC: Percent Effect (%)

molecule=CN(C)C(=O)[C@@H]1C[C@@H]2CCN(Cc3ccncc3)C[C@@H]2O1 measurement_units=% reported_value=7.41
molecule="COCCC(=O)N1CCC2(COCc3c(C)nc(NCC4CC4)nc32)C1 (stereo unspecified)" measurement_units=% reported_value=11.8
molecule=CN(C)C(=O)CO[C@H]1CN(Cc2ccoc2)[C@@H]2COC[C@H]12 measurement_units=% reported_value=-6.93
molecule=O=C(O)[C@@]12CN(c3cnccn3)C[C@@H]1CN(C1CCOCC1)C2 measurement_units=% reported_value=-12.3
molecule=CN1C[C@H]2C[C@H](C(=O)Nc3cccnc3)[C@@H](C1)O2 measurement_units=% reported_value=-5.71
molecule=O=C(CCc1ccccc1)N1C[C@H]2CCN[C@H]2C1 measurement_units=% reported_value=0.746
molecule=CCS(=O)(=O)N1CC[C@@H]2[C@H](COCC3CC3)CN(C)C(=O)[C@@H]2CC1 measurement_units=% reported_value=-4.29
molecule=CCN(Cc1nc2c(cnn2C)c(=O)[nH]1)Cc1cccs1 measurement_units=% reported_value=61.1
molecule="Cc1nc(NCC2CC2)nc2c1COCC21CCN(C(=O)C(C)(C)C)C1 (stereo unspecified)" measurement_units=% reported_value=97.5
molecule="Cc1nc(NCC2CC2)nc2c1COCC21CCN(C(=O)NC(C)C)C1 (stereo unspecified)" measurement_units=% reported_value=6.34
molecule=O=C(NC[C@H]1C[C@@H]2CCN1C[C@@H]2CN1CCCCC1)c1ccco1 measurement_units=% reported_value=-12.3

====

Biological target: ClpP1P2 (Mycobacterium tuberculosis (strain ATCC 25618 / H37Rv)) (UniProt P9WPC5+P9WPC3)
Assay: in vitro assay to detect presence of AMC directly proportional to the activity of ClpP1P2. GHDDI collaboration.
Format: functional
Design: scale not given: direction of the effect not stated beside the values
Settings: 50 µM
Out of some 69,000 compounds screened, about 10 (0.01%) showed an effect of 50% or more. This is one part of a sample in which strong results are shown more often than they occur.
Each entry below lists one item and its recorded Percent Effect value.
METRIC: Percent Effect (%)

compound=COc1ncccc1CN1C[C@@H]2COC[C@]2(COCC2CC2)C1 reported_value=-9.86
compound="Fc1cnc(N2CCO[C@H]3CN(CC4CCOC4)C[C@H]32)nc1 (some centres undefined)" reported_value=-12.3
compound=CCN1C[C@H]2CCN(C(=O)c3cc[nH]n3)CC[C@H]2S1(=O)=O reported_value=-1.84
compound=Cc1ccc2[nH]c(CO[C@H]3CN(C(=O)C4CC4)C[C@H]3F)nc2c1 reported_value=-1.53
compound=O=C1C[C@@H]2[C@H](CCN2Cc2ccco2)N1c1ccsc1 reported_value=-3.07
compound="CC(CN1CC[C@@H]2CCCC[C@@H]2C1)n1cnc2ccccc21 (some centres undefined)" reported_value=-9.76
compound=O=C(CCN1C[C@H]2CC[C@@H]1CN(c1ncccn1)C2)NCc1ccco1 reported_value=-5.46
compound=CC(C)CN1C[C@H]2N(c3ncccn3)CCC[C@@]2(C(=O)NCC2CC2)C1 reported_value=-20.2
compound=c1cc(CN2CCO[C@@H]3CNC[C@@H]32)co1 reported_value=-6.86
compound=NS(=O)(=O)N1CCc2ccc(NC(=O)CC(F)(F)F)cc21 reported_value=-1.98
compound=CN(C)CCN1CCO[C@H]2CN(Cc3cnn(C)c3)C[C@H]21 reported_value=-9.41
compound=O=C(Nc1ccccc1-c1ccccc1)N1C[C@@H]2CNC[C@]2(C(=O)O)C1 reported_value=4.15
compound=CC1=N[C@@]2(CC[C@@H]3CN(Cc4cccc(Cl)c4)C[C@@H]32)C(=O)N1CC1CC1 reported_value=3.49
compound=CCN1CC[C@@]2(C(=O)N(C)C)CCN(S(=O)(=O)c3ccccc3)CC[C@@H]12 reported_value=-6.35
compound=COc1ccc(CN2C[C@@H](N(C)Cc3ccco3)[C@H]3OCCC[C@H]32)cc1 reported_value=8.12
compound=NS(=O)(=O)N1CCc2ccc(NC(=O)Cc3ccc(F)cc3)cc21 reported_value=70.3
compound=CNC(=O)[C@@H]1C[C@H]2CN(Cc3c(C)noc3C)C[C@H]2N1C(C)C reported_value=-4.22
compound=Cc1ccc(CN2CC[C@@H]3[C@@H]2CCN3C(=O)Cc2cccs2)o1 reported_value=16.6
compound=COC[C@]12COC[C@H]1CN(Cc1ccc3ccccc3n1)C2 reported_value=8.31
compound=N#Cc1cccc(CN2CC[C@@H]3[C@@H]2CC(=O)N3CCN2CCCC2)c1 reported_value=-6.88
compound=CN(C)c1nccc(N2CCO[C@H]3CN(Cc4ccsc4)C[C@H]32)n1 reported_value=-1.49
compound=c1cnc(NC[C@@H]2CCC[C@@H]3CN(Cc4cccnc4)C[C@@H]32)nc1 reported_value=9.72
compound=CN(C)S(=O)(=O)N1C[C@H]2CCC[C@@]2(COCC2CC2)C1 reported_value=0.536
compound=Cn1cccc1C(=O)N1CC[C@H]2[C@H](CO[C@H]2CNS(C)(=O)=O)C1 reported_value=5.31
compound=Cn1cc(CN2CC[C@@H]3[C@@H](CCC(=O)N3CCc3ccccc3)C2)cn1 reported_value=-11.2
compound=Cc1nn(C)c(C)c1S(=O)(=O)N1CC[C@H]2O[C@@H](C)C[C@H]2C1 reported_value=9.45
compound=CN(C)S(=O)(=O)N1CCO[C@H]2[C@H](Oc3cccnc3)CC[C@@H]21 reported_value=-10.1
compound=O=C([C@H]1COC[C@H]2CN(Cc3ccco3)C[C@H]21)N1CCCO1 reported_value=3.57
compound=Cc1cc2cc(C(=O)N3CCN(CCO)[C@@H]4CS(=O)(=O)C[C@@H]43)ccc2o1 reported_value=-4.08
